Collected MIC values appear next to each entry.
System: Staphylococcus aureus
experiment: Antibacterial activity against Staphylococcus aureus ATCC 29213 after 18 hrs by EUCAST broth dilution method
Type: functional
statedConditions: Staphylococcus aureus, ATCC 29213, 18 h

Reference set, count: 5
O=C(O)c1cn(C2CC2)c2cc(N3CCN(S(=O)(=O)c4ccc5ccccc5c4)CC3)c(F)cc2c1=O    1.92 µM
O=C(O)c1cn(C2CC2)c2cc(N3CCN(S(=O)(=O)c4c(Cl)cc(Cl)cc4Cl)CC3)c(F)cc2c1=O    1.74 µM
CCn1cc(C(=O)O)c(=O)c2cc(F)c(N3CCN(S(=O)(=O)c4cccc5ccccc45)CC3)cc21    1.96 µM
O=C(O)c1cn(C2CC2)c2cc(N3CCN(S(=O)(=O)c4ccc(Cl)c(Cl)c4)CC3)c(F)cc2c1=O    ≤ 0.463 µM
O=C(O)c1cn(C2CC2)c2cc(N3CCNCC3)c(F)cc2c1=O    ≤ 0.758 µM

Considering Cc1cc(C)c(S(=O)(=O)N2CCN(c3cc4c(cc3F)c(=O)c(C(=O)O)cn4C3CC3)CC2)c(C)c1 , its MIC with Staphylococcus aureus was recorded as 62 µM

Considering COc1ccc(S(=O)(=O)N2CCN(c3cc4c(cc3F)c(=O)c(C(=O)O)cn4C3CC3)CC2)c(OC)c1 , its MIC with Staphylococcus aureus was recorded as ≤ 0.47 µM

Considering O=C(O)c1cn(C2CC2)c2cc(N3CCN(S(=O)(=O)c4ccc(F)cc4F)CC3)c(F)cc2c1=O , its MIC with Staphylococcus aureus was recorded as 3.94 µM

Considering CCn1cc(C(=O)O)c(=O)c2cc(F)c(N3CCN(S(=O)(=O)c4ccc5ccccc5c4)CC3)cc21 , its MIC with Staphylococcus aureus was recorded as 1.96 µM

Considering CCn1cc(C(=O)O)c(=O)c2cc(F)c(N3CCN(S(=O)(=O)c4c(C)cc(C)cc4C)CC3)cc21 , its MIC with Staphylococcus aureus was recorded as 7.98 µM

Considering CCn1cc(C(=O)O)c(=O)c2cc(F)c(N3CCN(S(=O)(=O)c4c(Cl)cc(Cl)cc4Cl)CC3)cc21 , its MIC with Staphylococcus aureus was recorded as 1.78 µM

Considering CCn1cc(C(=O)O)c(=O)c2cc(F)c(N3CCN(S(=O)(=O)c4ccc(OC)cc4OC)CC3)cc21 , its MIC with Staphylococcus aureus was recorded as 0.481 µM

Considering O=C(O)c1cn(C2CC2)c2cc(N3CCN(S(=O)(=O)c4ccc(Cl)cc4Cl)CC3)c(F)cc2c1=O , its MIC with Staphylococcus aureus was recorded as ≤ 0.463 µM

Considering O=C(O)c1cn(C2CC2)c2cc(N3CCN(S(=O)(=O)c4cccc5ccccc45)CC3)c(F)cc2c1=O , its MIC with Staphylococcus aureus was recorded as 1.92 µM

Considering CC(C)c1cc(C(C)C)c(S(=O)(=O)N2CCN(c3cc4c(cc3F)c(=O)c(C(=O)O)cn4C3CC3)CC2)c(C(C)C)c1 , its MIC with Staphylococcus aureus was recorded as 214 µM

Considering CCn1cc(C(=O)O)c(=O)c2cc(F)c(N3CCN(S(=O)(=O)c4c(C(C)C)cc(C(C)C)cc4C(C)C)CC3)cc21 , its MIC with Staphylococcus aureus was recorded as 55 µM

Considering CCn1cc(C(=O)O)c(=O)c2cc(F)c(N3CCN(S(=O)(=O)c4c(C)c(C)c(C)c(C)c4C)CC3)cc21 , its MIC with Staphylococcus aureus was recorded as 242 µM
